The measured values listed here are drawn from the supplement of paper PMC9112550.

Test system: Escherichia coli TOP10;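 note: peptides expressed intracellularly from a pBAD plasmid library in pooled LB shake-flask culture, induced with 0.3% L-arabinose, DNA abundance read by NGS, three biological replicates, DESeq2 with apeglm shrinkage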
Test: shrunken log2 fold change of peptide-encoding DNA abundance (4.5 h post-induction vs induction); higher = less antimicrobial activity (less host growth inhibition)
Settings: time post-induction: 4.5 h; library: site-saturation at positions 5, 18, 19, 20
value-type: shrunken log2 fold change

* RRIRQRPPRLPRPRPRPPINPRP | -0.00134
* RRIRNRPPRLPRPRPRPATTPRP | 0.272
* RRIRMRPPRLPRPRPRPHNAPRP | 0.207
* RRIRFRPPRLPRPRPRPYPSPRP | -0.018
* RRIRQRPPRLPRPRPRPLYRPRP | 0.0401
* RRIRHRPPRLPRPRPRPTNRPRP | -0.162
* RRIRMRPPRLPRPRPRPFVRPRP | -0.01
* RRIRIRPPRLPRPRPRPYEDPRP | -0.00133
